Tested on: RPMI-8226
assay: NCI tumour cell line growth inhibition, 48 h
Activity calls are given as the source filed them. Cut-off read from the data, not from the text of the source: active = GI50 up to about 1.1 µM and inactive = higher.
Can you answer with just one of these options? y (active), n (inactive)

Recorded results for 4 compounds are shown here.
How was C/N=C(\S)N/N=C/C(C)=N/N/C(S)=N/C classified in this test? y

Identify the outcome logged in this assay for the compound shown: CSc1nc(NC2CCCC2)c2cc[nH]c2n1 n

Identify the outcome logged in this assay for the compound shown: O/N=C(\CC(O)(C(F)(F)F)C(F)(F)F)c1cccs1 n

Status in this test for CCN(CC)CCCC(C)Nc1c2ccc(Cl)cc2nc2cc(Cl)ccc12 (stereo not given) ? n

Now consider the entry below.
Entry C/C=C/C(=O)[C@@H](O)C(C)C : call = ? n

* * *

Tested on: NCI-H23
assay: NCI tumour cell line growth inhibition, 48 h
Calls of active or inactive are those of the source. Rule as the data show it: active = GI50 up to about 1.1 µM and inactive = higher.
assay.metric: GI50

Form field: reported GI50 of CC1CCCC(C(O)CC2CC(=O)NC(=O)C2)C1O (configuration not stated) > 100 µM (inactive)

Reported GI50, compound O=C1C=CC(=O)C12CCc1ccccc12 : ____ > 100 µM (inactive)

Consider the compound CN(C)C=C1C(Cl)=C(C=O)CC(C=O)=C1Cl and give its measured GI50. 14.6 µM (inactive)

Value lookup for GI50; key = CC(C)CCNC(=O)c1ccc(CNC(=O)/C=C/c2ccc(-c3ccccc3[N+](=O)[O-])o2)cc1 82.8 µM (inactive)

Which measured GI50 value corresponds to Cc1nc2c(ccc3[nH]c4ccccc4c32)s1 ? 30.2 µM (inactive)

Further cases:
Given CN1CCN(CCCNN)CC1 , state its recorded GI50. > 100 µM (inactive)

Name the recorded GI50 for C/C=C/C(=O)[C@@H](O)C(C)C . > 100 µM (inactive)

* * *

System: MOLT-4
assay: NCI tumour cell line growth inhibition, 48 h
Calls of active or inactive are those of the source. Cut-off read from the data, not from the text of the source: active = GI50 up to about 1.1 µM and inactive = higher.
Returns: one label drawn from active, inactive

// below: answered compounds
// return assay outcome for O/N=C1\C(=C\c2ccc3c(c2)OCCO3)CCCC1C(NO)c1ccc2c(c1)OCCO2 (stereo not given) inactive

What was the test verdict on CN(N=O)C(=O)NC(CCCCNC(=O)OCc1ccccc1)C(=O)OCc1ccccc1 (stereo not given) ? inactive

Lab log entry: C/N=c1/ss/c(=N\C(SC)=[N+](C)C)n1C.[O-][Cl+3]([O-])([O-])[O-] — outcome as called in the assay? inactive

# lookup: test call for COC(=O)C(/C(=N/N)C(=O)Nc1ccc(C)c(C)c1)c1nc2ccc(Cl)cc2nc1O (stereo not given) inactive

Assay outcome for CCOP(=O)(COCCn1ncc(=O)[nH]c1=O)OCC : what was it? inactive

New cases:
Please share the test call associated with CCOC(=O)C1=C(Nc2ccc(Cl)cc2Cl)OCC1=O . inactive

Any idea what this test logged for COc1ccc(/C=c2\sc3n(c2=O)CCN=3)cc1 ? inactive

* * *

The entries below come with measured GI50 values attached.
Tested on: SNB-19
assay: NCI tumour cell line growth inhibition, 48 h
Calls of active or inactive are those of the source. No stated cut-off is given here; in the data, active = GI50 up to about 1.1 µM and inactive = higher.

Give GI50 (SNB-19) of the following compound: CC(=O)/C(=C/NC(=S)Nc1ccccc1)C(=O)Nc1ccccc1C > 100 µM (inactive)

Lab note: need GI50 with SNB-19 for entry Cc1cc(NS(=O)(=O)c2ccc(NC(=O)c3ccc4nc5ccccc5c(Nc5ccc(S(N)(=O)=O)cc5)c4c3)cc2)no1 , please look it up. 58.2 µM (inactive)

Fill in the recorded GI50 for this compound, with SNB-19 as test system: Cc1ccc2c(O)cc(-c3ccc4ccccc4c3)nc2n1 9.48 µM (inactive)

Reported GI50 for SNB-19, given CCCCN(C)/N=N/c1[nH]cnc1C(N)=O ? > 100 µM (inactive)

Request - read-out GI50 | tested on SNB-19 | compound C[C@H]1[C@H](C)N(Cc2ccccc2)P(=O)(C(O)/C=C/c2ccccc2)N1Cc1ccccc1 (stereo partly drawn) 12 µM (inactive)

Under SNB-19: GI50 value of CN(C)C(=S)/N=c1\ss/c(=N\C(=S)N(C)C)n1-c1cccc(Cl)c1 ? > 100 µM (inactive)

Fill in the recorded GI50 for this compound, with SNB-19 as test system: CC1OC(OC2C(O[C@H]3CC[C@@]4(C)C(=CC[C@H]5[C@@H]6C[C@@H]7O[C@]8(CC[C@H](C)CN8)[C@@H](C)[C@@H]7[C@@]6(C)CC[C@@H]54)C3)OC(CO)C(O)C2OC2OC(CO)C(O)C(O)C2O)C(O)C(O)C1O (stereo partly drawn) 20.7 µM (inactive)

Provide the documented GI50 with SNB-19 as the system for C/C(=N/NS(=O)(=O)c1c(C)cc(C)cc1C)c1cccc[n+]1[O-] > 100 µM (inactive)

---
What is its GI50 for SNB-19? Entry: CN1C(=O)CC2CCCN2C1=O (stereo not drawn) > 100 µM (inactive)

Value wanted: GI50 (SNB-19) of entry C=C(C)[C@@]1(O)O[C@H]2C[C@@]3(C)OC(=CC3=O)/C(C)=C\[C@@H]3OC(=O)[C@@]1(C)[C@H]32 > 58.7 µM (inactive)
